Data provenance: paper PMC12136788

Please provide measured binding signal for the entries that follow.
- study_target: T1, UNK ZnF1-3 (human, UniProt Q9C0B0 31-174)
- T1 sequence: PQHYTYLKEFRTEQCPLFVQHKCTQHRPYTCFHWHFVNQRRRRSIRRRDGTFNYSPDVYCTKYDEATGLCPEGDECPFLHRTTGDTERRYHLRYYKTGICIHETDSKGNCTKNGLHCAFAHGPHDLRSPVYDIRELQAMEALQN
- procedure_text: nsRBNS (natural sequence RNA bind-n-seq); RBNS binding buffer (assumed for nsRBNS): 25 mM Tris pH 7.5, 150 mM KCl, 3 mM MgCl2, 0.01% Triton X-100, 500 ug/ml BSA, 20 U/ml SUPERase-In, 4 C; UNK is unkempt and MSI1 is Musashi-1; names of the RNAs are library labels; protein concentration not given here; high values mean tight binding
Whole data set: some 24,000 sequences, median “enrichment r” near 0.99, cut for the highest 2% near 3.7. For the sample, the highest values were picked, then their nearest neighbours and some sequences at random.
Give bare numbers, in enrichment R.

# annotated cases, reported binding signal shown
[
  {
    "binder": "chr7:149838072:149838073:-_ENSMUSG00000048583_ENSMUST00000000033|mus_mus|FALSE|FALSE (ssRNA) RNA: GGGAGUUCUACAGUCCGACGAUCGAUCACUGCUCCCGUUAUGUAGGGAAUGGGUACAAUUGAUUAUGAGCGCAUAAAAAGCUAAGGAGGGAUUAAAAAAAAAAGGAAAAAACCGGCCCCAGAAAUAAAAAGAGGGGAAUAGAUCAACAGAGGAUUGAGCAUCA",
    "binding signal [enrichment R]": 11
  },
  {
    "binder": "chr7:149838072:149838073:-_ENSMUSG00000048583_ENSMUST00000000033|mus_mus|motif|central (ssRNA) RNA: GGGAGUUCUACAGUCCGACGAUCGAUCACUGCUCCCGUUAUGUAGGGAAUGGGUACAAUUGAUUAUGAGCGCAUAAAAAGCGGAGGAGGGAUUAAAAAAAAAAGGAAAAAACCGGCCCCAGAAAUAAAAAGAGGGGAAUAGAUCAACAGAGGAUUGAGCAUCA",
    "binding signal [enrichment R]": 9.4
  }
]

Next binder, binding signal to be filled in.
# input Reported binding signal for chr11:77340908:77340909:-_ENSG00000074201_ENST00000525064|hu_hu|hu_hu_hu_mus_True|8_8 (ssRNA) RNA: GGGAGUUCUACAGUCCGACGAUCGUUUGGAUCCCUGGACACCGCAUGUAAACUAAUGGUGGGGUAUUCCAGUGAGAAUCCUAAUCCCGAACCAUCUAACCAGGACAGGCGGCUCUCCGCGAUGUAAAGGGUACCAGUGCCGAGCAACAGAGGAUUGAGCAUCA : what is it?
# output 1.2
